target: SpHse1; experiment: SPOT peptide array binding signal intensity (averaged, normalized) (arbitrary units (background-subtracted, floor 0; scale differs between SH3 domains)); higher = stronger binding of the SH3 domain to the peptide
ASSAY METRIC: SPOT peptide array binding signal intensity

[
  {
    "BINDER": "VQPTAAPATPPRHIS",
    "COMPARATOR": "≤",
    "REPORTED RESULT": 0
  },
  {
    "BINDER": "SKSRLLIELPEGFFT",
    "COMPARATOR": "=",
    "REPORTED RESULT": 45.5
  },
  {
    "BINDER": "TTAPALPSLPPPPLL",
    "COMPARATOR": "≤",
    "REPORTED RESULT": 0
  },
  {
    "BINDER": "RKRRTHLRLPLIRSN",
    "COMPARATOR": "=",
    "REPORTED RESULT": 622
  },
  {
    "BINDER": "AIPPPVPNRPGGTTN",
    "COMPARATOR": "=",
    "REPORTED RESULT": 8.5
  },
  {
    "BINDER": "NVLRKILEIPLHSFS",
    "COMPARATOR": "=",
    "REPORTED RESULT": 2430
  },
  {
    "BINDER": "VAPPPLPNRQLPNLD",
    "COMPARATOR": "=",
    "REPORTED RESULT": 71.5
  },
  {
    "BINDER": "DFTLPPPPPPPGLDE",
    "COMPARATOR": "≤",
    "REPORTED RESULT": 0
  },
  {
    "BINDER": "RLSRLLLSLPPESFT",
    "COMPARATOR": "=",
    "REPORTED RESULT": 1330
  },
  {
    "BINDER": "ISNFVPPNLPMRRFK",
    "COMPARATOR": "=",
    "REPORTED RESULT": 86
  },
  {
    "BINDER": "NHSRSLFSLPGNQQS",
    "COMPARATOR": "=",
    "REPORTED RESULT": 1960
  },
  {
    "BINDER": "KIRRSSLMIPNPQQF",
    "COMPARATOR": "=",
    "REPORTED RESULT": 184
  },
  {
    "BINDER": "RLSFFFPLDPAYIRN",
    "COMPARATOR": "=",
    "REPORTED RESULT": 1620
  },
  {
    "BINDER": "LPPPPPPPPPPPLPQ",
    "COMPARATOR": "=",
    "REPORTED RESULT": 2.25
  },
  {
    "BINDER": "VRVKKRPLIRPLNSS",
    "COMPARATOR": "=",
    "REPORTED RESULT": 279
  },
  {
    "BINDER": "GAGERPRLVPRPINV",
    "COMPARATOR": "≤",
    "REPORTED RESULT": 0
  },
  {
    "BINDER": "IAPIPMPKPNPTHIS",
    "COMPARATOR": "=",
    "REPORTED RESULT": 217
  },
  {
    "BINDER": "SSAAPPPPPRRATPE",
    "COMPARATOR": "=",
    "REPORTED RESULT": 10.5
  },
  {
    "BINDER": "QHQQRQPKRPKRYSL",
    "COMPARATOR": "=",
    "REPORTED RESULT": 75.2
  },
  {
    "BINDER": "DGNEEKPLLPTRPNK",
    "COMPARATOR": "≤",
    "REPORTED RESULT": 0
  },
  {
    "BINDER": "RRASLFPRDPKRLRP",
    "COMPARATOR": "=",
    "REPORTED RESULT": 420
  },
  {
    "BINDER": "NENKKLPPAPTVFGL",
    "COMPARATOR": "=",
    "REPORTED RESULT": 71.8
  },
  {
    "BINDER": "LLRRTIPKRPFYHVL",
    "COMPARATOR": "=",
    "REPORTED RESULT": 372
  },
  {
    "BINDER": "DTIDNVKSKIQDKEG",
    "COMPARATOR": "≤",
    "REPORTED RESULT": 0
  },
  {
    "BINDER": "TPTSGPPLLPPRNTM",
    "COMPARATOR": "=",
    "REPORTED RESULT": 31.5
  },
  {
    "BINDER": "EAEEAAPQLPSRSSA",
    "COMPARATOR": "=",
    "REPORTED RESULT": 0.5
  },
  {
    "BINDER": "KKIRLIFTYPSTVGR",
    "COMPARATOR": "=",
    "REPORTED RESULT": 910
  },
  {
    "BINDER": "KMSRSPPRPPSLKII",
    "COMPARATOR": "=",
    "REPORTED RESULT": 70
  },
  {
    "BINDER": "DDEDVPPQLPTRTKS",
    "COMPARATOR": "=",
    "REPORTED RESULT": 7
  },
  {
    "BINDER": "FYHRPAPKPPVTKKV",
    "COMPARATOR": "≤",
    "REPORTED RESULT": 0
  }
]
